Hello, the source for this data is patent US20110038881A1, in case you need it.

molecular target: HLA-DRB1*1301 (human); assay: competition binding; settings: modification not given
VALUE KIND: IC50

As a guide, the following entries are already answered.
AHVAEQLRAYLEGTC [p31] : 8.06 µM
EQRYTCHVQHEGLPKP [p48] : > 100 µM
FQKWAAVVVPSGQEQR [p46*] : > 100 µM
CDVGSDWRFLRGYHQ [p19] : 100 µM
LSFYPAEITLTWQRD [p41] : > 100 µM

response.value for KPLTLRWEPSSQPTI [p50*] (field: IC50) = > 100 µM

// field: IC50; key: RSWTAADMAAQTTKH [p28] ; value = > 100 µM
